- TEST_TARGET: Nuclear receptor subfamily 1 group I member 2 (Homo sapiens)
- PROTOCOL_DESCRIPTION: ATG_PXR_TRANS: Attagene TRANS-FACTORIAL HepG2 Assay for human Pregnane X Receptor (PXR) (AID 2283008)
Records with an inconclusive call do not appear. The source made the active and inactive calls. Rule for the calls: active = hit-call score of the fitted dose curve at least 0.9, where 1 is the maximum; inconclusive = response in the unintended direction; inactive = score below 0.9.
Outcomes you can answer with include only these: active, inactive

Study these solved cases before continuing.
compound=CN1CCC[C@H]1c1cccnc1 label_class=inactive
compound=Nc1cccc2c(N)cccc12 label_class=inactive
compound=NC(=O)N(O)[C@@H]1C=C[C@H](Oc2cccc(Oc3ccc(F)cc3)c2)C1 label_class=active
compound="CCCCC(CC)COC(=O)CCCCC(=O)OCC(CC)CCCC (configuration not stated)" label_class=inactive
compound=CCCCCCCCCCCCc1ccccc1S(=O)(=O)O label_class=active
compound="N#C[C@@H]1CC(F)(F)CN1C(=O)CNC1CC2CCC(C1)N2c1ncccn1 (some centres not stated)" label_class=inactive
compound=C[C@@H]1C[C@H]2[C@@H]3CCC4=CC(=O)C=C[C@]4(C)[C@@]3(F)[C@@H](O)C[C@]2(C)[C@@]1(O)C(=O)COP(=O)(O)O label_class=inactive
compound=CCN(CC)CCNc1ccc(CNC=O)c2sc3ccc(OC)cc3c(=O)c12 label_class=active

## Task Assay outcome for `Oc1cccc(O)c1` : what was it?
## Result inactive

## Task Assay outcome for `CCCCCCC(=O)O` : what was it?
## Result inactive

## Task Assay outcome for `CCCCCCCCCCCCCC[N+](C)(C)C` : what was it?
## Result inactive

## Task Assay outcome for `CC(C)(C)c1cc(C(C)(C)C)c(O)c(C(C)(C)C)c1` : what was it?
## Result inactive

Source listed as PubChem BioAssay (EPA / NIEHS).
